Assay: Synergistic cytotoxicity against mouse L5178 cells expressing human ABCB1 assessed as combination index at ED75 using 30:1 test compound to doxorubicin ratio after 48 hrs by MTT-based checkerboard microplate method
Type: functional
OBSERVED PROPERTY: CI

COMPOUND SMILES: CO/N=C1/C=C2C3=CC[C@H]([C@@]4(C)OC(C)(C)O[C@@H]4CCC(C)(C)O)[C@@]3(C)CC[C@@H]2[C@@]2(C)C[C@@H]3OC(C)(C)O[C@@H]3C[C@@H]12
CI: 0.22

The following compounds each have a reported value; give each one's CI.
1. CCO/N=C1/C=C2C3=CC[C@H]([C@@]4(C)OC(C)(C)O[C@@H]4CCC(C)(C)O)[C@@]3(C)CC[C@@H]2[C@@]2(C)C[C@@H]3OC(C)(C)O[C@@H]3C[C@@H]12
2. CC(C)(O)CC[C@H]1OC(C)(C)O[C@]1(C)[C@H]1CC=C2C3=CC(=O)N[C@@H]4C[C@H]5OC(C)(C)O[C@H]5C[C@]4(C)[C@H]3CC[C@@]21C
3. CC(C)(O)CC[C@H]1OC(C)(C)O[C@]1(C)[C@H]1CC[C@@]2(O)C3=C/C(=N\OC(C)(C)C)[C@@H]4C[C@H]5OC(C)(C)O[C@H]5C[C@]4(C)[C@H]3CC[C@]12C
4. CCO/N=C1\C=C2[C@H](CC[C@]3(C)[C@@H]([C@@]4(C)OC(C)(C)O[C@@H]4CCC(C)(C)O)CC[C@@]23O)[C@@]2(C)C[C@@H]3OC(C)(C)O[C@@H]3C[C@@H]12
5. CC(C)(O)CC[C@H]1OC(C)(C)O[C@]1(C)[C@H]1CC=C2C3=C/C(=N\OC(C)(C)C)[C@@H]4C[C@H]5OC(C)(C)O[C@H]5C[C@]4(C)[C@H]3CC[C@@]21C
6. C=CCO/N=C1\C=C2[C@H](CC[C@]3(C)[C@@H]([C@@]4(C)OC(C)(C)O[C@@H]4CCC(C)(C)O)CC[C@@]23O)[C@@]2(C)C[C@@H]3OC(C)(C)O[C@@H]3C[C@@H]12
7. CC(C)(O)CC[C@H]1OC(C)(C)O[C@]1(C)[C@H]1CC=C2C3=C/C(=N/OC(C)(C)C)[C@@H]4C[C@H]5OC(C)(C)O[C@H]5C[C@]4(C)[C@H]3CC[C@@]21C
8. CC(C)(O)CC[C@H]1OC(C)(C)O[C@]1(C)[C@H]1CC=C2C3=C/C(=N\O)[C@@H]4C[C@H]5OC(C)(C)O[C@H]5C[C@]4(C)[C@H]3CC[C@@]21C

Data returned:
0.2
0.13
0.29
0.23
0.38
0.18
0.32
0.19

###

Assay: Synergistic cytotoxicity against mouse L5178 cells expressing human ABCB1 assessed as combination index at ED50 using 15:1 test compound to doxorubicin ratio after 48 hrs by MTT-based checkerboard microplate method
Assay type: functional
OBSERVED PROPERTY: CI
One number for each entry.

COMPOUND SMILES: CC(C)(O)CC[C@H]1OC(C)(C)O[C@]1(C)[C@H]1CC=C2C3=C/C(=N\O)[C@@H]4C[C@H]5OC(C)(C)O[C@H]5C[C@]4(C)[C@H]3CC[C@@]21C
CI: 0.26
--
COMPOUND SMILES: CC(C)(O)CC[C@H]1OC(C)(C)O[C@]1(C)[C@H]1CC=C2C3=C/C(=N\OC(C)(C)C)[C@@H]4C[C@H]5OC(C)(C)O[C@H]5C[C@]4(C)[C@H]3CC[C@@]21C
CI: 0.89
--
COMPOUND SMILES: CO/N=C1\C=C2[C@H](CC[C@]3(C)[C@@H]([C@@]4(C)OC(C)(C)O[C@@H]4CCC(C)(C)O)CC[C@@]23O)[C@@]2(C)C[C@@H]3OC(C)(C)O[C@@H]3C[C@@H]12
CI: 0.17
--
COMPOUND SMILES: CC(C)(O)CC[C@H]1OC(C)(C)O[C@]1(C)[C@H]1CC=C2C3=CC(=O)N[C@@H]4C[C@H]5OC(C)(C)O[C@H]5C[C@]4(C)[C@H]3CC[C@@]21C
CI: 0.2

Dear colleague, could you please provide CI for the molecules listed below?
1. CC(C)(O)CC[C@H]1OC(C)(C)O[C@]1(C)[C@H]1CC=C2C3=C/C(=N/OC(C)(C)C)[C@@H]4C[C@H]5OC(C)(C)O[C@H]5C[C@]4(C)[C@H]3CC[C@@]21C
2. C=CCO/N=C1/C=C2C3=CC[C@H]([C@@]4(C)OC(C)(C)O[C@@H]4CCC(C)(C)O)[C@@]3(C)CC[C@@H]2[C@@]2(C)C[C@@H]3OC(C)(C)O[C@@H]3C[C@@H]12
3. C=CCO/N=C1/C=C2[C@H](CC[C@]3(C)[C@@H]([C@@]4(C)OC(C)(C)O[C@@H]4CCC(C)(C)O)CC[C@@]23O)[C@@]2(C)C[C@@H]3OC(C)(C)O[C@@H]3C[C@@H]12
4. CCO/N=C1\C=C2[C@H](CC[C@]3(C)[C@@H]([C@@]4(C)OC(C)(C)O[C@@H]4CCC(C)(C)O)CC[C@@]23O)[C@@]2(C)C[C@@H]3OC(C)(C)O[C@@H]3C[C@@H]12
5. CCO/N=C1/C=C2[C@H](CC[C@]3(C)[C@@H]([C@@]4(C)OC(C)(C)O[C@@H]4CCC(C)(C)O)CC[C@@]23O)[C@@]2(C)C[C@@H]3OC(C)(C)O[C@@H]3C[C@@H]12
6. CC(C)(O)CC[C@H]1OC(C)(C)O[C@]1(C)[C@H]1CC=C2C3=C/C(=N/O)[C@@H]4C[C@H]5OC(C)(C)O[C@H]5C[C@]4(C)[C@H]3CC[C@@]21C

Data returned:
0.5
0.5
0.17
0.57
0.62
0.98

Attribution: ChEMBL document CHEMBL4145462
